Below: a set of entries, each annotated with reported GI50.
# Tested on: COLO 205
# Experiment notes: NCI60 five-dose screen
# Format: cell-based
# Protocol conditions: Homo sapiens, COLO 205
The reply should contain only the number, in nM.

Examples from the recorded data:
1. CCC12C=CCN3CCC4(c5ccc(OC)cc5N(C)C4C(O)(C(=O)OC)C1OC(=O)CCC[P+](c1ccc(C)cc1)(c1ccc(C)cc1)c1ccc(C)cc1)C32 (stereo not drawn)    176
2. CC[C@]12C=CCN3CC[C@@]4(c5ccc(OC)cc5N(C)[C@H]4[C@@](O)(C(=O)OC)[C@@H]1OC(=O)CCCC[P+](c1ccc(C)cc1)(c1ccc(C)cc1)c1ccc(C)cc1)[C@@H]32 [10a]    200

Okay, now this compound:
Quick one: GI50 for CC[C@]12C=CCN3CC[C@@]4(c5ccc(OC)cc5N(C)[C@H]4[C@@](O)(C(=O)OC)[C@@H]1OC(=O)CCCC[P+](C1CCCCC1)(C1CCCCC1)C1CCCCC1)[C@@H]32 [10d] ?
377

Data provenance is paper PMC12028158.
